- TARGET OF ASSAY: T1, Latent Activin A (human, UniProt P08476 21-426, limits assumed)
- T1 construct: also called INHBA latent
- T1 sequence: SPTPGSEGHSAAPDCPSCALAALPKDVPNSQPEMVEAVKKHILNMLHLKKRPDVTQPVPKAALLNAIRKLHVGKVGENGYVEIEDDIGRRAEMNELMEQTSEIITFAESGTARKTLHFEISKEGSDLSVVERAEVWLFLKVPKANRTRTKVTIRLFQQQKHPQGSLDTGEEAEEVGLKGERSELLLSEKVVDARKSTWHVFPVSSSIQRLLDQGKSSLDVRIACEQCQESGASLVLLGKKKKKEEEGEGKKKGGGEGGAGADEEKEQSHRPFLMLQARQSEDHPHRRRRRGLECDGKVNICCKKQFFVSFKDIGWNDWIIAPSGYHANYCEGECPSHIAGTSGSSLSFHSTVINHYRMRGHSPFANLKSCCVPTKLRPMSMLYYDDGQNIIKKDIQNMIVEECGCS
- PROCEDURE SUMMARY: ELISA dose-response, coated antigen
This listing pairs binders with measured EC50.
READOUT TYPE: EC50 (nM)

BINDER: AB852 (antibody, IgG1, V domains shown) VH: QVTLRESGPALVKPTQTLTLTCTVSGFSLSDTRWGVNWIRQPPGKALEWIGYINDRGTTDYNSALKSRLTISKDTSKNQVVLTMTNMDPVDTATYYCAHTLHTREFVGMDVWGQGTTVTVSS VL: DIVMTQSPDSLAVSLGERATINCKSSQSVLDTSTNRNYLAWYQQKPGQPPKLLIYGASIRAGGVPDRFSGSGSGTDFTLTISSLQAEDVAVYYCQQYETWPWTFGGGTKVEIK
READOUT TYPE: EC50
RECORDED VALUE: 40.9
--
BINDER: AB342 (antibody, IgG1, V domains shown) VH: EVQLVESGGGLVQPGGSLRLSCAASGFDFGEHWMSWVRQAPGKGLELVASIKGDASDTYYPDSVKGRFTISRDNAKNSLYLQMNSLRAEDTAVYYCVKDLSKQWLGIDYWGQGTLVTVSS VL: DIVMTQSPLSLPVTPGEPASISCRSSQSLLHSNEKNYLHWYLQKPGQSPQLLIYDASKRASGVPDRFSGSGSGTDFTLKISRVEAEDVGVYYCVQDLHTPFTFGGGTKVEIK
READOUT TYPE: EC50
RECORDED VALUE: 48.6
--
BINDER: AB731 (antibody, IgG1, V domains shown, also called clone 731) VH: QVQLQQPGTELVKPGASVKLSCKASGYTFTSYWMHWVKQRPGQGLEWIGNINPSNGGTNYNEKFKSKATLTVDKSSSTAYMQLSSLTSEDSAVYYCSITTVVAYWYFDVWGTGTTVTVSS VL: ENVLTQSPAIMSASPGEKVTISCSASSSVSYMYWYQQKPGSSPKPWIFRTYNLASGVPARFSGSGSGTSYSLTISNMEAEDAATYYCQQRSSYPWTFGGGTKLEIK
READOUT TYPE: EC50
RECORDED VALUE: 0.87
